Test system: MS2 coat protein
Experiment: apparent KD of MS2 coat protein; designed switch direction (-1 OFF switch, 1 ON switch): 1; higher = weaker reporter binding
Settings: Eterna round: R95; input ligand: microRNA oligo, concentration not stated
endpoint: apparent KD of MS2 coat protein

Consider the reported apparent KD of MS2 coat protein for these sequences:
Task item: Look up apparent KD of MS2 coat protein for this sequence: UGUAAACAUGAGGAUCACCCAUGUUUUUUCAUGGGAGGAUAUCUGAGUUAAGUAUAUUAAGGAGAAGGCCUAUUGU [× ×•×ª×• ×ž×“×™× ×” × ×—×ª-02] (puzzle: Same State 1)
Reply: 78 nM

Task item: // apparent KD of MS2 coat protein lookup, key: UUUAAACAUGAGGAUCACCCAUGUCAACAAAGUCGAGGAUAUGGGCAAAUAAAAUAAGAACCAGAAGGCGAAUAAU [salish99_ss1_r3_068] (puzzle: Same State 1)
Reply: 585 nM

Task item: Any idea what apparent KD of MS2 coat protein was measured for GGAGCCGGCACUGAGGAUAUUCAUAUUUAAACAUGAGGAUCACCCAUGUAGGCCAGAAGGCCUUGGGAGAAGGCAGGUCGGCUCG [salish99_ss2_r3_076] (puzzle: Same State 2) ?
Reply: 216 nM

Task item: apparent KD of MS2 coat protein lookup needed for GGAGCCGGUACUGAGGAUAUUCAUAUUAAAACAUGAGGAUCACCCAUGUAGGCCAGAAGGCCUUGGGAGAAGGCGGAUCGGCUCC [Biseusra - 2] (puzzle: Same State 2) , thanks.
Reply: 180 nM

Task item: // apparent KD of MS2 coat protein lookup, key: AACAAUCUAUCUGAGGAUAUCAUGAAAUAAACAUGAGGAUCACCCAUGUGUAGGAAAACUGCAUAUGAGAAGGCAGAUAGAUUGA [salish99_ss2_r3_036] (puzzle: Same State 2)
Reply: 299 nM

Pending sequence:
Task item: Quick one: apparent KD of MS2 coat protein for AGUCCAGCCUGAGCUGGACAAAAGCAUGUACAUGAGGAUCACCCAUGUCAUGUACAAGUUUUUUGCUCGUUUUAAUA [Zipper 49 - 18] (puzzle: Sensor for hsa-mir-208a) ?
Reply: 12.2 nM
